// data source = ChEMBL document CHEMBL3616410

Test system: Mycobacterium tuberculosis
Procedure Details: Bactericidal activity against Mycobacterium tuberculosis H37Rv ATCC 27294 after 5 days by spectrophotometry
Type: functional
Readout Label: MBC90 (µM)
Report the figure in µM without appending any unit label.

Requested read-out: MBC90. Entry: O=C(CCSc1nnc(-c2ccncc2)s1)Nc1c(Cl)cccc1Cl
2.5

Okay, and CC(CSc1nnc(-c2ccncc2)s1)C(=O)Nc1ccccc1Cl (stereo unspecified) ?
5

Okay, and CC(CSc1nnc(-c2ccncc2)s1)C(=O)Nc1ccccc1 (stereo unspecified) ?
5

Okay, and CC(CSc1nnc(-c2ccncc2)s1)C(=O)Nc1ccc(Cl)cc1Cl (stereo unspecified) ?
5

Okay, and CC(Sc1nnc(-c2ccncc2)s1)C(=O)Nc1ccc(Cl)cc1 (stereo unspecified) ?
1.25

Okay, and O=C(CCSc1nnc(-c2ccncc2)s1)NCc1ccc(Cl)cc1 ?
2.5

Okay, and CC(Sc1nnc(-c2ccncc2)s1)C(=O)Nc1ccccc1 (stereo unspecified) ?
5

Okay, and CC(CSc1nnc(-c2ccncc2)s1)C(=O)Nc1c(Cl)cccc1Cl (stereo unspecified) ?
5

Okay, and S=c1[nH]nc(-c2ccncc2)s1 ?
1.25

Okay, and O=C(CCSc1nnc(-c2ccncc2)s1)NCc1ccccc1 ?
2.5

Okay, and CC(Sc1nnc(-c2ccncc2)s1)C(=O)Nc1ccc(Cl)cc1Cl (stereo unspecified) ?
5

Okay, and O=C(CCSc1nnc(-c2ccncc2)s1)Nc1ccccc1 ?
2.5

Okay, and O=C(CCSc1nnc(-c2ccncc2)s1)Nc1ccc(Cl)cc1Cl ?
2.5

Okay, and CC(Sc1nnc(-c2ccncc2)s1)C(=O)Nc1ccccc1Cl (stereo unspecified) ?
5

Okay, and CC(Sc1nnc(-c2ccncc2)s1)C(=O)NCc1ccccc1 (stereo unspecified) ?
5

Okay, and O=C(CCSc1nnc(-c2ccncc2)s1)Nc1ccc(Cl)cc1 ?
1.25

====

Procedure Details: Cytotoxicity against human HepG2 cells after 3 days
Format: cell-based
Answer each item with its documented CC50 at 72 h.
Report the figure in µM without appending any unit label.

Requested read-out: CC50 at 72 h. Entry: O=C(CSc1nnc(-c2ccncc2)s1)Nc1ccccc1
15.2

Okay, and O=C(CCSc1nnc(-c2ccncc2)s1)NCc1ccc(Cl)cc1 ?
15.6

Okay, and O=C(CCSc1nnc(-c2ccncc2)s1)NCc1ccccc1 ?
14

Okay, and S=c1[nH]nc(-c2ccncc2)s1 ?
19.7

Okay, and O=C(CSc1nnc(-c2ccncc2)s1)NCc1ccccc1 ?
17.7

Okay, and O=C(CCSc1nnc(-c2ccncc2)s1)Nc1ccc(Cl)cc1 ?
7.26

====

Procedure Details: Cytotoxicity against hamster BHK21 cells after 3 days
Format: cell-based, Mesocricetus auratus, BHK-21
Answer each item with its documented CC50 at 72 h.
Report the figure in µM without appending any unit label.

Requested read-out: CC50 at 72 h. Entry: O=C(CCSc1nnc(-c2ccncc2)s1)NCc1ccccc1
18.7

Okay, and O=C(CCSc1nnc(-c2ccncc2)s1)NCc1ccc(Cl)cc1 ?
21.5

Okay, and O=C(CCSc1nnc(-c2ccncc2)s1)Nc1ccc(Cl)cc1 ?
8.21

====

Tested on: Mycobacterium tuberculosis
Procedure Details: Antimycobacterial activity against Mycobacterium tuberculosis H37Rv ATCC 27294 after 5 days by spectrophotometry
Assay type: functional
Condition Details: H37Rv ATCC 27294, 120 h
Readout Label: MIC50 (µM)
Report the figure in µM without appending any unit label.

Requested read-out: MIC50. Entry: CC(CSc1nnc(-c2ccncc2)s1)C(=O)Nc1ccc(Cl)cc1 (stereo not drawn)
0.22

Okay, and O=C(CCSc1nnc(-c2ccncc2)s1)NCc1ccccc1Cl ?
0.65

Okay, and CC(Sc1nnc(-c2ccncc2)s1)C(=O)NCc1ccccc1 (stereo not drawn) ?
1.15

Okay, and CC(Sc1nnc(-c2ccncc2)s1)C(=O)Nc1ccccc1Cl (stereo not drawn) ?
1.04

Okay, and O=C(CSc1nnc(-c2ccncc2)s1)Nc1ccc(Cl)cc1 ?
6.81

Okay, and CC(CSc1nnc(-c2ccncc2)s1)C(=O)Nc1ccc(Cl)cc1Cl (stereo not drawn) ?
1.48

Okay, and O=C(CCSc1nnc(-c2ccncc2)s1)Nc1ccccc1 ?
0.61

Okay, and O=C(CSc1nnc(-c2ccncc2)s1)Nc1ccccc1Cl ?
8.52

Okay, and CC(CSc1nnc(-c2ccncc2)s1)C(=O)Nc1ccccc1Cl (stereo not drawn) ?
2.05

Okay, and CC(Sc1nnc(-c2ccncc2)s1)C(=O)Nc1ccc(Cl)cc1 (stereo not drawn) ?
0.12

Okay, and CC(CSc1nnc(-c2ccncc2)s1)C(=O)Nc1c(Cl)cccc1Cl (stereo not drawn) ?
1.55

Okay, and CC(Sc1nnc(-c2ccncc2)s1)C(=O)Nc1c(Cl)cccc1Cl (stereo not drawn) ?
1.19

Okay, and O=C(CCSc1nnc(-c2ccncc2)s1)Nc1ccccc1Cl ?
0.62

Okay, and O=C(CSc1nnc(-c2ccncc2)s1)Nc1ccccc1 ?
0.18

Okay, and CC(CSc1nnc(-c2ccncc2)s1)C(=O)NCc1ccccc1Cl (stereo not drawn) ?
1.89

====

Test system: Mycobacterium tuberculosis
Procedure Details: Antimycobacterial activity against Mycobacterium tuberculosis H37Rv ATCC 27294 after 5 days by spectrophotometry
Format: functional
Condition Details: H37Rv ATCC 27294, 120 h
Readout Label: MIC50

Requested read-out: MIC50. Entry: O=C(CSc1nnc(-c2ccncc2)s1)Nc1c(Cl)cccc1Cl
> 20 µM

Okay, and O=C(CSc1nnc(-c2ccncc2)s1)Nc1ccc(Cl)cc1Cl ?
> 20 µM

Okay, and CC(Sc1nnc(-c2ccncc2)s1)C(=O)NCc1ccc(Cl)cc1 (stereo not drawn) ?
> 20 µM
